experiment: Pharmacokinetics study in rabbits after oral Panax notoginseng extract with or without Borneol (plasma, SPE-HPLC-MS); type: in vivo, New Zealand rabbits; settings: New Zealand, rabbit, plasma, po, oral 3.0 mL·kg^−1 Panax notoginseng extract combined with Borneol
ENDPOINT: AUC(0-t) (ng·h/mL)
Please state the figure in ng·h/mL; there is no need to write the unit.

MOLECULE: CC(C)=CCC[C@](C)(O[C@@H]1O[C@H](CO)[C@@H](O)[C@H](O)[C@H]1O)[C@H]1CC[C@]2(C)[C@@H]1[C@H](O)C[C@@H]1[C@@]3(C)CC[C@H](O)C(C)(C)[C@@H]3[C@@H](O[C@@H]3O[C@H](CO)[C@@H](O)[C@H](O)[C@H]3O[C@@H]3O[C@@H](C)[C@H](O)[C@@H](O)[C@H]3O)C[C@]12C [GRe, ginsenoside Re]
AUC(0-t) / ng·h/mL: 8750

--- query ---
Can you look up the measured AUC(0-t) of CC(C)=CCC[C@](C)(O[C@@H]1O[C@H](CO)[C@@H](O)[C@H](O)[C@H]1O)[C@H]1CC[C@]2(C)[C@@H]1[C@H](O)C[C@@H]1[C@@]3(C)CC[C@H](O)C(C)(C)[C@@H]3[C@@H](O[C@@H]3O[C@H](CO)[C@@H](O)[C@H](O)[C@H]3O)C[C@]12C [GRg1, ginsenoside Rg1] for me? 9090
